Tested on: Plasmodium falciparum
ASSAY: microbe, parasite or virus in culture
CONDITION_CONTEXT: RCS
Description: Antimalarial activity against chloroquine-resistant, mefloquine-sensitive Plasmodium falciparum RCS
pIC50: −log10 of the molar value.
pIC50 values, listed per item
MEASURE: pIC50

- C[C@H](CCC(N)=O)[C@H]1CC[C@H]2[C@@H]3[C@H](O)C[C@@H]4CC5(CC[C@]4(C)[C@H]3C[C@H](O)[C@]12C)OOC(C)(C)OO5: 7.41
- O[C@@H](c1cc(C(F)(F)F)nc2c(C(F)(F)F)cccc12)[C@H]1CCCCN1: 8.63
- CC(=O)O[C@H]1C[C@H]2[C@@H]([C@H](OC(C)=O)C[C@@H]3CC4(CC[C@@]32C)OOC(C)(C)OO4)[C@@H]2CC[C@H]([C@H](C)CCC(=O)Nc3ccccc3)[C@@]12C: 8.72
- CNC(=O)CC[C@@H](C)[C@H]1CC[C@H]2[C@@H]3[C@H](OC(C)=O)C[C@@H]4CC5(CC[C@]4(C)[C@H]3C[C@H](OC(C)=O)[C@]12C)OOC(C)(C)OO5: 7.94
- CC(=O)O[C@H]1C[C@H]2[C@@H]([C@H](OC(C)=O)C[C@@H]3CC4(CC[C@@]32C)OOC(C)(C)OO4)[C@@H]2CC[C@H]([C@H](C)CCC(=O)NN)[C@@]12C: 8.15
- CC(=O)O[C@H]1C[C@H]2[C@@H]([C@H](OC(C)=O)C[C@@H]3CC4(CC[C@@]32C)OOC(C)(C)OO4)[C@@H]2CC[C@H]([C@H](C)CCC(=O)N(C)C)[C@@]12C: 8.14
